- assay explanation: growth suppression of PTEN-deleted HCT116, pilot screen, cell-based, HCT116 clonal line, CellTiter-Glo (AID 824);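 also: 0% = 20 µM Hyamine control and 100% = vehicle cell control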
- protocol conditions: 60 h, at 10 µM, active compounds read low
Inconclusive results are not listed.
Kindly supply the reported viability values for the records listed here.
Numbers only, in %.

* CCOC(=O)c1c(-c2ccc(C)o2)csc1N | 93.8

Can you give me viability for all of these, one by one?
1. COc1ccc(C2CC(c3c(Cl)cccc3Cl)n3nc(N)nc3N2)cc1 (configuration not stated)
2. CCN1CCN(c2ncnc3c2sc(=S)n3-c2ccccc2)CC1
3. Cc1ccc2sc(NC(=O)CN3C(=O)CCC3=O)nc2c1C
4. Clc1cc(NCc2cccs2)ccc1N1CCOCC1
5. O=C(NCC(c1cccnc1)N1CCN(c2ccccc2F)CC1)c1ccccc1 (configuration not stated)
6. CCc1nc(N(CC)CC)c2oc3ccccc3c2n1

1. 88.1
2. 84.9
3. 109
4. 92
5. 82.4
6. 71
